- Tested on: MYB mRNA
- experimental protocol: RT-qPCR splicing assay, MYB mRNA canonical (CJ) and alternative (AJ) junction
- Type: cell-based, human
- measurement context: Homo sapiens, MYB canonical junction mRNA, RT-qPCR; read-out: MYB CJ (decrease in CJ mRNA levels, IC50)
pIC50: −log10 of the molar value.
assay metric: pIC50

Can you share its pIC50? I mean this molecule: Cc1c(O)c(-c2ccc3nc(N4CC[C@H](N[C@H]5C[C@H](F)C5)C4)ccc3n2)cc2cn(C)nc12 (single isomer, unassigned)
> 7.00

One more molecule: Cn1cc2cc(-c3ccc4nc(N5CC[C@H](NC6CC6)C5)ccc4n3)c(O)c(F)c2n1 (single isomer, unassigned)
> 7.00

One more molecule: Cn1cc2cc(-c3ccc4nc(N5CC[C@H](NC6CC(F)(F)C6)C5)ccc4n3)c(O)cc2n1
6.00 to 7.00

One more molecule: CCN(CC)C1CCN(c2ccc3nc(-c4cc5cn(C)nc5c(F)c4O)ncc3c2)CC1
6.00 to 7.00

One more molecule: Cn1cc2cc(-c3ccc4nc(N5CC[C@H](NCC6CC6)C5)ccc4n3)c(O)cc2n1
> 7.00

One more molecule: Cn1cc2cc(-c3ncc4cc(N5CCC(N6CCC6)CC5)ccc4n3)c(O)c(F)c2n1
> 7.00

One more molecule: C[C@@H]1CN(c2ccc3nc(-c4cc5cn(C)nc5cc4O)ncc3c2)C[C@@H](C)N1
6.00 to 7.00

###

Could you please report measured pIC50 for the items listed next?
- Test system: MYB
- experimental protocol: HiBiT protein abundance assay, MYB (K562 HiBiT knock-in)
- Type: cell-based, human
- measurement context: HiBiT knock-in K562 cells, 24 hours, top dose 10 μM
pIC50: −log10 of the molar value.

Give pIC50 (MYB) of the following compound: Cc1c(O)c(-c2ccc3nc(N4CCC(NC5COC5)C4)ccc3n2)cc2cn(C)nc12 (stereo not drawn) [Compound 302]
6.00 to 7.00

One more compound: Cn1cc2cc(-c3ccc4cc(C5CCNCC5)ccc4n3)c(O)cc2n1 [Compound 109]
> 7.00

One more compound: Cc1c(O)c(-c2ncc3nc(N4CCNCC4)ccc3n2)cc2cn(C)nc12 [Compound 338]
> 7.00

One more compound: Cc1c(O)c(-c2nc(C(=O)NC(C)C)c3cc(N4C[C@@H](C)N[C@@H](C)C4)ccc3n2)cc2cn(C)nc12 [Compound 539]
> 7.00

One more compound: Cc1c(O)c(-c2ccc3nc(N4CC[C@@H](NC(C)(C)C)C4)ccc3n2)cc2cn(C)nc12 [Compound 249]
> 7.00

One more compound: Cc1nc2cc(O)c(-c3ccc4nc(N5CC[C@@H](N[C@H]6C[C@H](F)C6)C5)ccc4n3)cc2o1 (single isomer, unassigned) [Compound 348]
> 7.00

One more compound: Cn1cc2cc(-c3ccc4nc(N5CCC(NC(C)(C)C)C5)ccc4n3)c(O)cc2n1 (stereo not drawn) [Compound 127]
> 7.00

One more compound: Cn1cc2cc(-c3ccc4nc(N5CCC56CCNC6)ccc4n3)c(O)cc2n1 (stereo not drawn) [Compound 162]
< 5.00

One more compound: CNC(=O)c1nc(-c2cc3cn(C)nc3c(F)c2O)nc2ccc(N3CCC(N4CCC4)CC3)cc12 [Compound 722]
> 7.00

One more compound: Cc1nc2c(F)c(O)c(-c3ccc4nc(N5CC[C@@H](NCC6CC6)C5)ccc4n3)cc2o1 (single isomer, unassigned) [Compound 323]
> 7.00

One more compound: Cn1cc2cc(-c3ccc4nc(N5CC[C@H](NCC(F)(F)F)C5)ccc4n3)c(O)cc2n1 [Compound 182]
< 5.00

One more compound: Cc1nc2cc(O)c(-c3ccc4nc(N5CCN[C@@H](C(C)C)C5)ccc4n3)cc2o1 [Compound 422]
6.00 to 7.00

One more compound: Cn1cc2cc(-c3ccc4nc(C5CCNCC5)ccc4n3)ccc2n1 [Compound 184]
6.00 to 7.00

One more compound: Cc1nc2c(C)c(O)c(-c3ccc4nc(N5CC[C@@H](NC6CC6)C5)ncc4n3)cc2o1 (single isomer, unassigned) [Compound 432]
6.00 to 7.00

One more compound: Cc1nc2c(C)c(O)c(-c3ccc4cc(N5CC[C@H](NC6CC6)C5)ncc4n3)cc2o1 [Compound 441]
5.00 to 6.00
